# target system: AuroraA-TPX2 (Homo sapiens)
# Construct: 20 μL of AuroraA-TPX2 KD GST for a final volume of about 41 μL; GST
# measurement protocol: AuroraA-TPX2 Homogeneous Time Resolved Fluorescent (HTRF) kinase assay
# Type: biochemical
# setup conditions: average; read-out: AurA_IC50_IP (uM Avg)
result type: IC50 (µM)

Example entries and their recorded answers appear below.
smiles repr	result type	uom	result value
COc1cc2nccc(Oc3ccc(Nc4nnc(-c5cccc(C)n5)c5ccccc45)cn3)c2cn1	IC50	µM	0.241
c1ccc2c(-c3ccc4c(c3)OCO4)nnc(Nc3ccc(Oc4ccnc5ccsc45)cc3)c2c1	IC50	µM	0.078
COc1cnc2c(Sc3ccc(Nc4nnc(Cl)c5ccccc45)cc3)ccnc2c1	IC50	µM	0.812
Cc1cc2nccc(Sc3ccc(Nc4nnc(-c5ccc(Cl)cc5)c5ccccc45)cc3)c2o1	IC50	µM	0.15
Oc1ccc2nccc(Sc3ccc(Nc4nnc(-c5ccc(Cl)cc5)c5ccccc45)cc3)c2c1	IC50	µM	0.02

a: COc1cnc2c(Oc3ccc(Nc4nnc(-c5cccc(N(C)C)c5)c5ccccc45)cc3)ccnc2c1
b: COc1ccc2nccc(Oc3ccc(Nc4nnc(-c5ccc(C)cn5)c5ccccc45)cc3)c2c1
[Q] Would you let me know which has the greater IC50 value, a or b ? Write down the label attached to your selection.
[A] b
(b: 0.172 µM, a: 0.005 µM)

###

# target system: AuroraA-TPX2 (Homo sapiens, UniProt O14965)
# Construct: 20 μL of AuroraA-TPX2 KD GST for a final volume of about 41 μL; GST
# Sequence (O14965 133-383 limits assumed): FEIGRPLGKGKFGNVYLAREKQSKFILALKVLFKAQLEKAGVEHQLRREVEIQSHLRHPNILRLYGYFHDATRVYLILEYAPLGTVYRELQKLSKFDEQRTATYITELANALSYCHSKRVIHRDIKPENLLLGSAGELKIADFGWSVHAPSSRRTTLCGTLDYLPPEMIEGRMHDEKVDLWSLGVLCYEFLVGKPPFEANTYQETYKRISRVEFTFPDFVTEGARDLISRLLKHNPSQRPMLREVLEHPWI
# Sequence (Q9ULW0 1-43 partner limits assumed): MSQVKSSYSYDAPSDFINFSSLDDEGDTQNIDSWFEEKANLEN
# measurement protocol: AuroraA-TPX2 Homogeneous Time Resolved Fluorescent (HTRF) kinase assay
# Assay type: biochemical
# setup conditions: average; read-out: AurA_IC50_IP (uM Avg)
result type: IC50 (µM)

Example entries and their recorded answers appear below.
smiles repr	IC50, µM
COc1cnc2c(Sc3ccc(Nc4nnc(-c5ccc(F)cc5)c5ccccc45)cc3)ccnc2c1	0.036
O=c1ccc2nccc(Oc3ccc(Nc4nnc(-c5ccc(Cl)cc5)c5ccccc45)cc3)c2[nH]1	0.128
COc1cnc2c(Sc3ccc(Nc4nnc(NCCc5ccccn5)c5ccccc45)cc3)ccnc2c1	0.198

P: COc1cnc2c(Oc3ccc(Nc4nnc(-c5ccc6occc6c5)c5ccccc45)cc3)ccnc2c1
Q: Cc1csc(-c2nnc(Nc3ccc(Oc4ccnc5cc(C#N)ccc45)cc3)c3ccccc23)n1
[Q] I'm curious, which of these has a smaller IC50 number: P or Q ? Write down the label attached to your selection.
[A] P

I: COc1cnc2c(Oc3ccc(Nc4nnc(-c5cncnc5)c5ccccc45)cc3)ccnc2c1
II: COc1cnc2c(Oc3ccc(Nc4nnc(-c5ccc(OC(F)(F)F)cc5)c5ccccc45)cc3)ccnc2c1
[Q] Would you let me know which has the greater IC50 value, I or II ? Write down the label attached to your selection.
[A] I

a: COc1cnc2c(Oc3ccc(Nc4nnc(-c5ccc(Cl)cn5)c5ccccc45)cc3)ccnc2c1
b: Cc1ccsc1-c1nnc(Nc2ccc(Oc3ccnc4cc(C#N)ccc34)cc2)c2ccccc12
c: CCc1cc(N2CCCCC2)nnc1Nc1ccc(Oc2ccnc3cc(OC)cnc23)cc1
[Q] hey, can you rank those compounds up there by IC50? biggest number first please Output the labels ranked as instructed.
[A] c, b, a
(c: 0.304 µM, b: 0.201 µM, a: 0.034 µM)

I: c1ccc(-c2nnc(Nc3ccc(Oc4ccnc5cc(-c6ccoc6)ccc45)cc3)c3ccccc23)cc1
II: COc1cnc2c(Sc3ccc(Nc4nnc(N5CCCC(C)(C)C5)c5ccccc45)cc3)ccnc2c1
[Q] I'm curious, which of these has a smaller IC50 number: I or II ? Write down the label attached to your selection.
[A] I

a: COc1cnc2c(Oc3ccc(Nc4nnc(-c5ccc6c(c5)CCO6)c5ccccc45)cc3)ccnc2c1
b: Cn1cc(-c2ccc3c(Oc4ccc(Nc5nnc(-c6ccccc6)c6ccccc56)cc4)ccnc3c2)cn1
[Q] I'm curious, which of these has a smaller IC50 number: a or b ? Write down the label attached to your selection.
[A] b

Origin of values: patent US8557816B2
